# TGT: HLA-A*29:02
# TEST PROTOCOL: IEDB peptide-MHC binding, purified MHC/competitive/radioactivity; filed as Kd, often an IC50 or EC50 that approximates it; bounds were set here for any values at or beyond the usual limits of such assays
# CONDITION LABEL: source organism: SARS coronavirus Tor2
OBSERVED PROPERTY: Kd

Task: Recorded Kd of VYHITVSQI , please.
Result: ≥ 28.9 µM

Task: What would you report for SYATHHDKF ?
Result: ≥ 22.6 µM

Task: What would you report for FYLYLTFYF ?
Result: ≥ 75 µM

----------
# TGT: HLA-B*15:01
# TEST PROTOCOL: IEDB peptide-MHC binding, purified MHC/competitive/radioactivity; filed as Kd, often an IC50 or EC50 that approximates it; bounds were set here for any values at or beyond the usual limits of such assays
# CONDITION LABEL: source organism: Vaccinia virus WR
pKd: −log10 of the molar value.
Tag: class 1 if measured pKd is not below 6, class 0 if it is.

Task: Is pKd for SKYAGINIL at or above 6?
Result: class 0

Task: What would you report for FSKKKVCFV ?
Result: class 0

Task: What would you report for YACKQILHG ?
Result: class 0

Task: What would you report for YMATTILEM ?
Result: class 1

Task: What would you report for KVREHTFVK ?
Result: class 0

Task: What would you report for AVFMLMETM ?
Result: class 1
